experimental_system: T1, human RXFP1 (human, UniProt Q9HBX9 1-757)
T1 sequence (looked up): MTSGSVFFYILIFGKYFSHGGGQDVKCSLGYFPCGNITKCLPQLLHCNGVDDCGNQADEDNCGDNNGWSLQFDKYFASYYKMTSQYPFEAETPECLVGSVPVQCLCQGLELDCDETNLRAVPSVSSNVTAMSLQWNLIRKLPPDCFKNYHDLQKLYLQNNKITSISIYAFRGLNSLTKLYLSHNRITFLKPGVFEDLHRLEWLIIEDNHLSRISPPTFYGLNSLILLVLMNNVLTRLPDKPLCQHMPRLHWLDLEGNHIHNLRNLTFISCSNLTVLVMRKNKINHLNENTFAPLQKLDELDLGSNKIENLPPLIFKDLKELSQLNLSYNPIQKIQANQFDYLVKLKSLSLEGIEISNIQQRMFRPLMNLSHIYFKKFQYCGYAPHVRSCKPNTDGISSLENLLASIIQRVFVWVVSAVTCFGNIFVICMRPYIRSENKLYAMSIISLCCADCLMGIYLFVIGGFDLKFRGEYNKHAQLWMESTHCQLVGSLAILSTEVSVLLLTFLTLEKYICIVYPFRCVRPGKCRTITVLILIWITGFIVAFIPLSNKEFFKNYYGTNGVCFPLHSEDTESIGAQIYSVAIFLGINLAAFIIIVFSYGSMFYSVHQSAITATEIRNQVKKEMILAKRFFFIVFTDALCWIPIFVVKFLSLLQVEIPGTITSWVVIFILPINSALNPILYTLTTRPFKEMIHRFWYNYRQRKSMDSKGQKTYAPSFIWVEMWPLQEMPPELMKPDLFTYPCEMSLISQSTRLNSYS
assay_method_text: cell-based or functional assay
Numbered stars: 1 amine (or outer) side, 2 acyl side, 3 side chain; on linkers, the order of the positions; unused ones are H or OH. Square brackets hold non-standard residues; d marks the D form. Side chains are listed from the residue outwards. * marks the point of attachment. TTDS = 4-[3-[2-[2-(3-aminopropoxy)ethoxy]ethoxy]propylamino]-4-oxo-butanoyl; γGlu = O=C(O)[C@H](CCC(=O)[*:2])N[*:1]; Stearoyl = CCCCCCCCCCCCCCCCCC(=O)*; Palmitoyl = CCCCCCCCCCCCCCCC(=O)*; Cit = NC(=O)NCCC[C@H](N)C(=O)O; αMeK = C[C@](N)(CCCCN)C(=O)O; Aib = CC(C)(N)C(=O)O
value_type: EMax, OVCAR 5 cells (cAMP) (%)
Form entry: value (%) — number only.

binder: Ac-LEGREKVRAK(Ac)I[Aib][Aib]EGK([TTDS-TTDS-γGlu-γGlu-Palmitoyl])STFS[αMeK]RAK(Ac)-NH2 [Relaxin peptide analogue of SEQ ID NO: 9]
value_type: EMax, OVCAR 5 cells (cAMP)
unit_spec: %
reading: 93

INPUT: Give its EMax, OVCAR 5 cells (cAMP) value. Item: Ac-LEGREKVRA[Cit]I[Aib][Aib]EGK([TTDS-TTDS-TTDS-γGlu-γGlu-γGlu-Stearoyl])STFS[αMeK]RAK(Ac)-NH2 [Relaxin peptide analogue of SEQ ID NO: 56]
OUTPUT: 91

INPUT: Try this binder too: Ac-LEGREKVRAK(Ac)I[Aib][Aib]EGK([TTDS-TTDS-TTDS-γGlu-γGlu-γGlu-Palmitoyl])STFSRRAK(Ac)-NH2 [Relaxin peptide analogue of SEQ ID NO: 87]
OUTPUT: 96

INPUT: Now try Ac-LEGREKVRAK(Ac)I[Aib][Aib]EGK([TTDS-TTDS-TTDS-γGlu-γGlu-γGlu-γGlu-Palmitoyl])STWS[Aib]RKK(Ac)-NH2 [Relaxin peptide analogue of SEQ ID NO: 62] .
OUTPUT: 98

INPUT: Try Ac-LEGREKVRAK(Ac)I[Aib][Aib]EGK([TTDS-TTDS-TTDS-γGlu-γGlu-γGlu-Palmitoyl])STW[Aib]KRAK(Ac)-NH2 [Relaxin peptide analogue of SEQ ID NO: 35] next.
OUTPUT: 91

INPUT: Let us now turn to Ac-LEGREFVRAK(Ac)I[Aib][Aib]EGK([TTDS-TTDS-TTDS-γGlu-γGlu-γGlu-Palmitoyl])STFS[αMeK]RAK(Ac)-NH2 [Relaxin peptide analogue of SEQ ID NO: 24]
OUTPUT: 100

INPUT: Another binder to check: Ac-LEGRERVR[Aib]K(Ac)I[Aib][Aib]EGK([TTDS-TTDS-TTDS-γGlu-γGlu-γGlu-Palmitoyl])STWS[Aib]RRK(Ac)-NH2 [Relaxin peptide analogue of SEQ ID NO: 85]
OUTPUT: 92

INPUT: Now the same for Ac-LEGREKVRAK(Ac)I[Aib][Aib]EGK([TTDS-TTDS-γGlu-γGlu-γGlu-Palmitoyl])STWS[Aib]RKK(Ac)-NH2 [Relaxin peptide analogue of SEQ ID NO: 4]
OUTPUT: 89

INPUT: Same again, this time with Ac-LEGREKVRAK(Ac)I[Aib][Aib]EGK([TTDS-TTDS-TTDS-γGlu-γGlu-γGlu-Palmitoyl])STW[dS]KRAK(Ac)-NH2 [Relaxin peptide analogue of SEQ ID NO: 44]
OUTPUT: 97
